# assay.text: n-octanol/water partition coefficient, shake flask method
# Format: physicochemical
readout.kind: logP at 24 h

Incoming: Look at this molecule and give its reported logP at 24 h. O=C1OC2(c3ccc(O)cc3Oc3cc(O)ccc32)c2ccccc21 [Fluorescein]
Outgoing: 1.55

* * *

# assay.text: Transport across hRMECs monolayer cells
# Type: in vitro ADME
# cond: human
readout.kind: Papp at 360 min, 100 μmol/L (×10⁻⁶ cm/s)
Just the number in ×10⁻⁶ cm/s, nothing appended.

Incoming: Look at this compound and give its reported Papp at 360 min, 100 μmol/L. O=C1OC2(c3ccc(O)cc3Oc3cc(O)ccc32)c2ccccc21 [Fluorescein]
Outgoing: 7.23
